Assayed System: hTREM2 (Homo sapiens, UniProt Q9NZC2)
Sequence (Q9NZC2 19-230): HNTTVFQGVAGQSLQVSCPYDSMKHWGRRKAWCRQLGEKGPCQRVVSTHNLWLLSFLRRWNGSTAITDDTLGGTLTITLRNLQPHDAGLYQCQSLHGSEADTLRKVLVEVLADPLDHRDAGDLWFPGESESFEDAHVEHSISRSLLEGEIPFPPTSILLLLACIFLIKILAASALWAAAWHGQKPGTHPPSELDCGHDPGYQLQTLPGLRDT
Sequence (O43914 22-113 partner): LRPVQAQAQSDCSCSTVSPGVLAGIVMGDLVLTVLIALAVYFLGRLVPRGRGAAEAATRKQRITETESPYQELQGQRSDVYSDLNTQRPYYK
Measurement Notes: Phospho-Syk AlphaScreen/AlphaLISA assay in TREM2 and DAP12 overexpressing HEK293 cells (Example A1)
Format: cell-based
Design: expressed in transfected cells
Test Context: HEK293 cells
Text: Pharmacological measurements of TREM2 signaling through DAP12 were made with TREM2 and DAP12 overexpressing HEK293 cells stable cell lines that had been single-cell cloned (“TREM2/DAP12-HEK”). The readout of the TREM2 signaling utilized Perkin Elmer AlphaScreen/AlphaLISA technology monitoring the phosphorylation levels of the Syk kinase. […]
Reported Endpoint: Emax

Cc1nc2cc(N3CCOC(c4cncc(F)c4)C3)nc(-c3ccc(Cl)cc3F)c2c(=O)n1C (centres unmarked) [Example 69]
++++ (Emax>300)
Cc1nc2cc(N3CCO[C@H](c4nccs4)C3)nc(-c3ccc(Cl)cc3F)c2c(=O)n1C [Example 198]
++++ (Emax>300)
Cc1nc2cc(N3CCC[C@H](c4cn[nH]c4)C3)nc(-c3ccc(Cl)cc3F)c2c(=O)n1C (single isomer, unassigned) [Example 108]
++++ (Emax>300)

Every entry's value here was drawn from patent US20250388574A1.
